- protocol_notes: Concentration in mouse plasma at 50 mg/kg, po administered via gavage cotreated with 50 mg/kg ritonavir
- Assay type: ADME, organism-based
- condition_notes: in vivo
parameter_measured: concentration (µM)

{"columns": ["molecule", "parameter_measured", "unit", "result_value"],
 "data": [
  ["[2H]C([2H])(c1cc(Cl)ccc1N)N1CCN(C(=O)CNC(=O)C2CC23CCC(F)(F)CC3)CC1 (single isomer, unassigned; (-))", "concentration", "µM", 2],
  ["[2H]C([2H])(c1cc(Cl)ccc1NCc1ccc(S(C)(=O)=O)cc1)N1CCN(C(=O)CNC(=O)C2CC23CCC(F)(F)CC3)CC1 (single isomer, unassigned; (-))", "concentration", "µM", 5.7],
  ["CS(=O)(=O)c1ccc(COc2ccc(Cl)cc2CN2CCN(C(=O)CNC(=O)C3CC34CCC(F)(F)CC4)CC2)cc1 (stereo in doubt; 3-22)", "concentration", "µM", 4.7]
]}

====

- Test system: Ebolavirus
- protocol_notes: Antiviral activity against recombinant VSV pseudotyped Ebolavirus expressing M-GFP infected in African green monkey Vero E6 cells assessed as inhibition of viral infection pre-incubated for 2 hrs before infection and measured after 8 to 12 hrs in presence of 50% NHS by fluorescence microscopic method
- Format: functional, Vero C1008
- condition_notes: vero c1008
pIC50: −log10 of the molar value.

{"columns": ["molecule", "pIC50"],
 "data": [
  ["CS(=O)(=O)c1ccc(COc2ccc(Cl)cc2CN2CCN(C(=O)CNC(=O)C3CC34CCC(F)(F)CC4)CC2)cc1 (stereo in doubt; 3-22)", 7.72]
]}

====

- protocol_notes: Cmax in mouse at 25 mg/kg, po administered via gavage cotreated with 20 mg/kg ritonavir
- Type: ADME, organism-based
- Parameters: dose 25 mg/kg, route oral
- condition_notes: in vivo
parameter_measured: Cmax

{"columns": ["mol_smiles", "result_value"],
 "data": [
  ["[2H]C([2H])(c1cc(Cl)ccc1N)N1CCN(C(=O)CNC(=O)CC2CCC(F)(F)CC2)CC1", "12 µM"]
]}

====

- protocol_notes: physchem
- condition_notes: phosphate buffered saline, pH 7.4
Form field: solubility kinetic (one value per entry).

{"columns": ["compound", "unit", "inequality_sign", "solubility kinetic"],
 "data": [
  ["CS(=O)(=O)c1ccc(COc2ccc(Cl)cc2CN2CCN(C(=O)CNC(=O)C3CC34CCC(F)(F)CC4)CC2)cc1 (stereo in doubt; 3-22)", "µM", "=", 10],
  ["O=C(CC12CC3CC(CC(C3)C1)C2)NCC(=O)N1CCN(Cc2ccccc2OCc2ccc(-c3ncco3)cc2)CC1", "µM", "=", 5],
  ["Nc1ccc(Cl)cc1CN1CCN(C(=O)CNC(=O)CC2CCC(F)(F)CC2)CC1", "µM", ">", 100],
  ["[2H]C([2H])(c1cc(Cl)ccc1NCc1ccc(S(C)(=O)=O)cc1)N1CCN(C(=O)CNC(=O)C2CC23CCC(F)(F)CC3)CC1 (single isomer, unassigned; (-))", "µM", "=", 4],
  ["COC(=O)c1ccc(COc2ccccc2CN2CCN(C(=O)CNC(=O)CC34CC5CC(CC(C5)C3)C4)CC2)cc1", "µM", "=", 5.3],
  ["[2H]C([2H])(c1cc(Cl)ccc1N)N1CCN(C(=O)CNC(=O)C2CC23CCC(F)(F)CC3)CC1 (single isomer, unassigned; (-))", "µM", "=", 78]
]}
